Each recorded value in this set is attributed to ChEMBL document CHEMBL5352392.

- tested-target: Heat shock protein HSP90 (Homo sapiens, UniProt P07900+P08238)
- stated-conditions: dose 100.0 nM
- Description: Inhibition of Hsp90 (unknown origin) at 100 nM by TR-FRET assay relative to control
# label = 1 if inhibition >= 60% else -1

Take a look at these entries with their results.
> print(dat)
                                test.smiles  category
1  CCNC(=O)N(C(=O)NCC)c1ccc(-c2nc(N3CCOCC3)c3c4c(sc3n2)CN(C(=O)c2cc(C(C)C)c(O)cc2O)CC4)cc1        -1
2  CC(C)c1cc(C(=O)N2CCc3c(sc4nc(-c5ccc(NC(=O)Nc6ccc(C(F)(F)F)cc6)cc5)nc(N5CCOCC5)c34)C2)c(O)cc1O         1
3  CC(C)c1cc(C(=O)N2CCc3c(sc4nc(N5CCOCC5)nc(N5CCCCC5)c34)C2)c(O)cc1O        -1
4  CC(C)c1cc(C(=O)N2CCc3c(sc4nc(N5CCOCC5)nc(N5CCC(F)(F)CC5)c34)C2)c(O)cc1O        -1
5  CC(C)c1cc(C(=O)N2CCc3c(sc4nc(N5CCCCC5)nc(N5CCOCC5)c34)C2)c(O)cc1O        -1
6  CC(C)c1cc(C(=O)N2CCc3c(sc4nc(-c5ccc(NC(=O)Nc6ccc(F)c(Cl)c6)cc5)nc(N5CCOCC5)c34)C2)c(O)cc1O         1

(Q) Entry CC(C)c1cc(C(=O)N2CCc3c(sc4nc(-c5ccc(NC(=O)Nc6cccc(C(F)(F)F)c6)cc5)nc(N5CCOCC5)c34)C2)c(O)cc1O : is its inhibition no less than 60%?
(A) 1

(Q) Kindly determine if inhibition recorded for CC(C)c1cc(C(=O)N2CCc3c(sc4nc(-c5ccc(NC(=O)Nc6cc(Cl)cc(Cl)c6)cc5)nc(N5CCOCC5)c34)C2)c(O)cc1O is above or exactly 60%.
(A) 1

(Q) Check the entry CC(C)c1cc(C(=O)N2CCc3c(sc4nc(-c5ccc(N)cc5)nc(N5CCOCC5)c34)C2)c(O)cc1O : does inhibition equal or exceed 60%?
(A) -1
